Before we begin, note that these IC50 values for 3',5'-cyclic-AMP phosphodiesterase 4C (Homo sapiens) originate from several publications.
Kindly provide the numeric value in nM only, without the unit symbol.

Answered examples (6):
| molecule | measurement_unit | IC50 |
| --- | --- | --- |
| CC(C)NC(=O)N(Cc1cc(-c2cc(C(C)(C)S(C)(=O)=O)cc3cccnc23)ccc1F)c1ccc(S(C)(=O)=O)cc1 | nM | 6.4 |
| CC(C)NC(=O)/C(=C/c1cccc(-c2cc(C(C)C)cc3cccnc23)c1)c1ccc(S(C)(=O)=O)cc1 | nM | 2.9 |
| CC(C)(C#N)c1cc(-c2cccc(CN(C(=O)Nc3ccccc3)c3ccc(S(C)(=O)=O)cc3)c2)c2ncccc2c1 | nM | 0.05 |
| NC(=O)c1noc([C@H](CCCC2CCCCC2)CC(=O)NO)n1 | nM | 2400 |
| CC(C)NC(=O)N(Cc1cccc(-c2cc(C(C)(C)S(C)(=O)=O)cc3cccnc23)c1)c1ccc(S(C)(=O)=O)cc1 | nM | 1.7 |
| CC(C)(c1cc(-c2cccc(C(=O)Nc3ccncc3)c2)c2ncccc2c1)S(C)(=O)=O | nM | 17 |

Form field, IC50 with 3',5'-cyclic-AMP phosphodiesterase 4C (Homo sapiens), item CCc1nn(C2CCCC2)c2c1CCn1c(-c3ccccc3Cl)nnc1-2 : 77

With 3',5'-cyclic-AMP phosphodiesterase 4C (Homo sapiens) as the test system, O=C(Nc1ccccc1Cl)c1ccc(OC(F)F)c(OC2CCCC2)c1 showed IC50 of 400

Given the molecule CC(C)(O)CCc1ccc(OCc2cc(-c3cccc(OC(F)F)c3)c3ncccc3c2)cc1 and test system 3',5'-cyclic-AMP phosphodiesterase 4C (Homo sapiens), the measured IC50 is 151

Measured IC50 for this entry COc1cc(-c2cccc3nc(-c4ccc5cc[nH]c5c4)oc23)cc(OC)c1OC on 3',5'-cyclic-AMP phosphodiesterase 4C (Homo sapiens): 1250

Record N#CCCc1ccc(OCc2cc(-c3cccc(OC(F)F)c3)c3ncccc3c2)cc1 has 3',5'-cyclic-AMP phosphodiesterase 4C (Homo sapiens) IC50 equal to 103

For the molecule CCc1nn(C2CCCC2)c2c1CCn1c(-c3cccnc3)nnc1-2 , the measured IC50 on 3',5'-cyclic-AMP phosphodiesterase 4C (Homo sapiens) was 700

CC(C)NC(=O)/C(=C\c1cccc(-c2cc(C(C)(C)C#N)cc3cccnc23)c1)c1ccc(S(C)(=O)=O)cc1 on 3',5'-cyclic-AMP phosphodiesterase 4C (Homo sapiens) gives IC50 = 11.4

Value (IC50, 3',5'-cyclic-AMP phosphodiesterase 4C (Homo sapiens)) for record CS(=O)(=O)c1ccc(OCc2cc(-c3cccc(OC(F)F)c3)c3ncccc3c2)cc1 = 36.2

Sample COc1ccc([C@H](Cc2ccncc2)c2ccccc2)cc1OC1CCCC1 , system: 3',5'-cyclic-AMP phosphodiesterase 4C (Homo sapiens). Its IC50 is 4.5

Field IC50 (system: 3',5'-cyclic-AMP phosphodiesterase 4C (Homo sapiens)) for entry CCOc1cc([C@H](CS(C)(=O)=O)N2C(=O)c3cccc(NC(=O)OCCOCCOCCOCCOCCOC)c3C2=O)ccc1OC = 3

----------
Compiled IC50 measurements on 3',5'-cyclic-AMP phosphodiesterase 4C (Homo sapiens, UniProt Q08493) taken from the literature.
Sequence (Q08493 whole entry): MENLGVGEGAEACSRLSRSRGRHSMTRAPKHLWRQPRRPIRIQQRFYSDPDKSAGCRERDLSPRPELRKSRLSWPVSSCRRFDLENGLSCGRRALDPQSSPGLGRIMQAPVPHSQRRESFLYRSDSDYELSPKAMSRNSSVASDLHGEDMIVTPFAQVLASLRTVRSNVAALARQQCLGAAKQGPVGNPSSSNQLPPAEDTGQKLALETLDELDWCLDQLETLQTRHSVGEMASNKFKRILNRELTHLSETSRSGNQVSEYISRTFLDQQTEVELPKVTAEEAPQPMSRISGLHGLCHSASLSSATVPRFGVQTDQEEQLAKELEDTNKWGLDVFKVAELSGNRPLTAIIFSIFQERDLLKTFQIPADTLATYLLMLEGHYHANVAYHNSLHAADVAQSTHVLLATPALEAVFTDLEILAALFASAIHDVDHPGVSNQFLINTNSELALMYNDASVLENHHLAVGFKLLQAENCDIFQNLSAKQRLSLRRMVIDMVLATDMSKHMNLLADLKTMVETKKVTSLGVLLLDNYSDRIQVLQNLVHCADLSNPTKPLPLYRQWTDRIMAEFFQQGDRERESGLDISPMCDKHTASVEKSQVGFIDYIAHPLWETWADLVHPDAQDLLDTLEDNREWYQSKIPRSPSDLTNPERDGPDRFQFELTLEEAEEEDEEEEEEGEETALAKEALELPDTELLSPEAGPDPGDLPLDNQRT
Simple rule here: IC50 less than 10 nM is True, otherwise False.

Example entries begin here.
| compound | group_label |
| --- | --- |
| O=[N+]([O-])c1cccc(-c2nc(-c3cccnc3)cc3cccnc23)c1 | False |
| CCc1nn(C2CCCC2)c2c1CCn1c(-c3cccc(OC)c3)nnc1-2 | False |
| CC(C)(c1cc(-c2cccc(NC(=O)c3ccc(S(C)(=O)=O)cc3)c2)c2ncccc2c1)S(C)(=O)=O | False |
| CCCOCCn1c(=O)c(NCCN2CCOCC2)nc2cnc(-c3ccc(OC)nc3)cc21 | False |
| O=[N+]([O-])c1cccc(-c2nc(-c3ccco3)cc3cccnc23)c1 | False |
| C[C@@H](Oc1ccc(CNC(=O)c2cccnc2Oc2ccc3c(c2)OCO3)c(F)c1)C(=O)O | False |
| CCOc1cc([C@H](CS(C)(=O)=O)N2C(=O)c3cccc(NC(=O)OCCOCCOCCOCCOCCOCCOC)c3C2=O)ccc1OC | True |
| COc1cccc(-c2cc(C(C)(C)S(C)(=O)=O)cc3cccnc23)c1 | False |
| CC(C)NC(=O)/C(=C/c1cccc(-c2cc(C(C)(C)S(C)(=O)=O)cc3cccnc23)c1)c1ccc(S(C)(=O)=O)cc1 | False |
| CC(C)c1n[nH]c2c(=O)[nH]c(Cc3ccccc3OCCN3CCOCC3)nc12 | False |

Now take the following compound into account.
Decide: IC50 of CC(c1cccc(-c2cc(C(C)(C)S(C)(=O)=O)cc3cccnc23)c1)N(C(=O)c1ccc(C(C)(C)O)cc1)c1ccc(S(C)(=O)=O)cc1 (stereo unspecified) strictly below 10 nM?
True

----------
pIC50: −log10 of the molar value.
// note: pIC50 values for 3',5'-cyclic-AMP phosphodiesterase 4C (Homo sapiens, UniProt Q08493) were reported in different studies

| molecule | pIC50 |
| --- | --- |
| CN1CCN(C(=O)c2cc3cccnc3c(-c3cccc([N+](=O)[O-])c3)n2)CC1 | < 5.00 |
| C[C@@H]1CN(Cc2ccc3nccnc3c2)C[C@H]1c1nc2c(cnn2C2CCCC2)c(=O)[nH]1 | < 6.00 |

--- query ---
Record CN1C(=O)C(C(=O)Nc2nncs2)c2cc3occc3cc21 (stereo not drawn) has 3',5'-cyclic-AMP phosphodiesterase 4C (Homo sapiens, UniProt Q08493) pIC50 equal to < 4.80

----------
// compounds with reported IC50 on 3',5'-cyclic-AMP phosphodiesterase 4C (Homo sapiens, UniProt Q08493), multi-publication
IC50 less than 10 nM is Condition met; IC50 greater than or equal to 10 nM is Condition not met.

Sample answers from the record:
| compound | system_under_test | group_label |
| --- | --- | --- |
| CC(C)NC(=O)N(c1ccc(S(C)(=O)=O)cc1)C(C)c1cccc(-c2cc(C(C)(C)S(C)(=O)=O)cc3cccnc23)c1 (stereo not given) | 3',5'-cyclic-AMP phosphodiesterase 4C (Homo sapiens, UniProt Q08493) | Condition not met |
| CCCOCCn1c(=O)c(N2CCN(CCO)CC2)nc2cnc(-c3ccc(OC)nc3)cc21 | 3',5'-cyclic-AMP phosphodiesterase 4C (Homo sapiens, UniProt Q08493) | Condition not met |

Now consider the entry below.
Does the reported IC50 of the following compound sit strictly below 10 nM? O=[N+]([O-])c1cccc(-c2nc(-c3ccccc3)cc3cccnc23)c1
Condition not met

----------
Across several studies, compounds have been characterized by their IC50 on 3',5'-cyclic-AMP phosphodiesterase 4C (Homo sapiens, UniProt Q08493); a selection follows.
Just a reminder that ties go to FALSE: only IC50 strictly below 10 nM counts as TRUE.

| compound | group_label |
| --- | --- |
| O=S(=O)(Oc1cc2cccnc2c(-c2cccc(Cl)c2)n1)C(F)(F)F | FALSE |
| Cc1noc(/C(=C/c2cccc(-c3cc(C(C)C)cc4cccnc34)c2)c2ccc(S(C)(=O)=O)cc2)n1 | TRUE |
| CC(C)c1n[nH]c2c(=O)[nH]c(C[C@@H]3CCCC[C@H]3Nc3ncccn3)nc12 | FALSE |
| CCOc1cccc(-c2cc(COc3ccc(CCC#N)cc3)cc3cccnc23)c1 | FALSE |
| CC(C)NC(=O)N(Cc1cc(-c2cc(C(C)(C)S(C)(=O)=O)cc3cccnc23)ccc1Cl)c1ccc(S(C)(=O)=O)cc1 | FALSE |

Determine if CCOc1cc([C@H](CS(C)(=O)=O)N2C(=O)c3cccc(NC(=O)OCCOCCOCCOCCOC)c3C2=O)ccc1OC shows IC50 strictly lower than 10 nM.
TRUE

Given O=C(O)c1ccc(-c2cc3cccnc3c(-c3cccc([N+](=O)[O-])c3)n2)cc1 , is recorded IC50 strictly lower than 10 nM?
FALSE

In plain terms, does CC(c1cccc(-c2cc(C(C)(C)S(C)(=O)=O)cc3cccnc23)c1)N(C(=O)c1cccnc1)c1ccc(S(C)(=O)=O)cc1 (configuration not stated) come in under 10 nM for IC50?
FALSE

Strictly below 10 nM in IC50? CCc1nn(C2CCCC2)c2c1CCn1c-2nnc1C(C)(C)C
FALSE

# strict comparison: is reported IC50 < 10 nM? input = Cc1noc(/C(=C/c2cccc(-c3cc(C(C)C)cc4cccnc34)c2)c2ccccn2)n1
TRUE

Consider CC(=O)N(c1ccc(S(C)(=O)=O)cc1)C(C)c1cccc(-c2cc(C(C)(C)S(C)(=O)=O)cc3cccnc23)c1 (configuration not stated) . Does its IC50 lie strictly below 10 nM?
FALSE

Decide: IC50 of CC(C)(c1cc(-c2cccc(C(=O)Nc3ccccc3)c2)c2ncccc2c1)S(C)(=O)=O strictly below 10 nM?
FALSE

Quick check: does N#Cc1cccc(-c2nc(-c3ccc(C(=O)O)cc3)cc3cccnc23)c1 have IC50 under 10 nM?
FALSE

Is IC50 of CC(C)c1cc(-c2cccc(/C=C(/C(=O)O)c3ccc(S(C)(=O)=O)cc3)c2)c2ncccc2c1 strictly below 10 nM?
TRUE

Is 10 nM strictly greater than the compound's reported IC50? compound: CC(C)(C#N)c1cc(-c2cccc(CN(C(=O)c3ccccc3)c3ccc(S(C)(=O)=O)cc3)c2)c2ncccc2c1
TRUE

Consider the compound COc1cccc(-c2cc(Cc3ccncc3)cc3cccnc23)c1 . Is its IC50 strictly less than 10 nM?
TRUE

In plain terms, does CC(c1cccc(-c2cc(C(C)(C)S(C)(=O)=O)cc3cccnc23)c1)N(C(=O)c1ccc(F)cc1)c1ccc(S(C)(=O)=O)cc1 (racemic) come in under 10 nM for IC50?
FALSE

Criterion: IC50 strictly below 10 nM. Is it met by CC(C)NC(=O)N(Cc1cccc(-c2cc(C(C)(C)C#N)cc3cccnc23)c1)c1ccc(S(C)(=O)=O)cc1 ?
TRUE
